Test system: RPMI-8226 leukemia
test: NCI tumour cell line growth inhibition, 48 h
endpoint.name: TGI

COc1ccc(C(=O)N2CCN(c3ccc4c(c3)OCC(=O)N4)CC2)cc1 ... > 100 µM

Request: I have this compound here, OC(c1cccs1)c1cc2ccccc2s1 (centres undefined) , and I need its recorded TGI.
Result: > 10 µM

Request: So what's the measured TGI for this one? `CC(=O)NNc1nc(C)c(C(/C=C/c2ccc(Cl)cc2)=N\NS(=O)(=O)c2ccc(C)cc2)s1`
Result: > 100 µM

Request: I'd like to know its TGI. The compound in question is `COc1ccc(-c2cc(-c3ccc(Nc4ccnc5cc(C(F)(F)F)ccc45)cc3)[nH]c(=O)c2C#N)c2ccccc12`
Result: > 100 µM

Request: Would you mind telling me what TGI value was observed for Nc1nc2c(c3ncccc13)C(c1cccc(Cl)c1)Cc1ncccc1-2 (centres undefined) ?
Result: 41.1 µM

Request: Please give the measured TGI for this compound: `COc1cc(/C=C/C(=O)c2cc(F)c(Cl)cc2Cl)cc(OC)c1OC`
Result: 52.9 µM

Request: For the compound `C[C@@]12CC[C@H]3[C@@H]4CCC(=O)N[C@@]4(C)CC[C@@H]3[C@@]1(C)CC[C@H](OC(=O)Cc1ccc(N(CCCl)CCCl)cc1)C2` , what TGI is on record?
Result: 56 µM

Request: For the compound shown here, N#CC1C(=N)Cc2ccccc2-c2ccccc21 (centres undefined) , give the reported TGI.
Result: > 100 µM

Request: Please report the recorded TGI for `O=C1CN(c2ccc(Cl)cc2)C(=O)CN1CCN1CC(=O)N(c2ccc(Cl)cc2)CC1=O` .
Result: > 100 µM

====

Tested on: HOP-62 NSCLC
test: NCI tumour cell line growth inhibition, 48 h
endpoint.name: TGI

CCCCCCOc1ccc(NC2=C(Cl)C(=O)c3cccnc3C2=O)cc1 ... 5.83 µM
CC(=O)O[C@H]1[C@@H]2[C@@H]3[C@@H](C[C@H]1C)[C@@H](C)CO[C@@]1(C)CC/C=C(/C)C[C@@H]2O[C@@H]31 ... > 100 µM
Cc1ccc(NC(=O)CC(=O)n2nc(-c3ccccc3)c(N=Nc3ccc(Cl)cc3)c2-c2ccccc2)cc1 ... > 100 µM

Request: Param item = Oc1ccc2c(c1)OCC(O)(c1ccccc1O)C2 (configuration not stated) ; retrieve measured TGI.
Result: > 100 µM

Request: Look up TGI: C/C=C(\C)C(=O)O[C@@H]1C(O)[C@H]2OC(COC(=O)CCC(=O)CCCCCC[C@H](CCCCC)O[C@@H]3OC(C)[C@H](OC(C)=O)C(O)[C@H]3O2)[C@H]1OC(=O)/C=C/c1ccccc1 (some centres not stated)
Result: 7.18 µM

Request: Could you share which TGI value was measured for `C=C(CNCCc1ccc(O)cc1)[C@@H]1CC[C@]2(CO)CC[C@]3(C)[C@H](CC[C@@H]4[C@@]5(C)CCC(=O)C(C)(C)[C@@H]5CC[C@]43C)[C@@H]12` ?
Result: 3.11 µM

Request: Given the compound `CC(=O)Oc1ccn2nc(C)c(Br)c2c1Br` , what is its reported TGI?
Result: > 87 µM

Request: Query: TGI; subject: `O=C1c2cccnc2-c2nc(/C=C/c3ccccc3)cc3c2c1nc1ccccc13`
Result: 11.8 µM

Request: Bench note: what TGI did COC(=O)C1=NN2c3ccccc3C(=O)OCCC2C1 (configuration not stated) show?
Result: > 100 µM

Request: Please report the recorded TGI for `COc1ccc(C(=O)N2CCN(c3ccc4c(c3)OCC(=O)N4)CC2)cc1` .
Result: > 100 µM

Request: Look up TGI for this compound: `CCCCn1c2c(c3ccccc3c1=O)C(=O)c1ccccc1-2`
Result: > 100 µM

====

Test system: CCRF-CEM leukemia
test: NCI tumour cell line growth inhibition, 48 h
endpoint.name: TGI

Request: Any idea what TGI was measured for `Cc1cc(S(=O)(=O)Nc2nc3ccsc3c(=O)n2Cc2ccco2)c(S)cc1Cl` ?
Result: > 100 µM

Request: May I ask what TGI has been recorded for CCOC(OCC)C(CC)[Se]c1ccccc1[N+](=O)[O-] (stereo unspecified) ?
Result: > 62.5 µM

Request: Given the entry `C(CCc1nnc2c(n1)CCCC2)Cc1nnc2c(n1)CCCC2` , report its measured TGI.
Result: > 100 µM

Request: Return reported TGI; argument: NC1CC2C3CCC2C1C3=O (stereo unspecified)
Result: > 100 µM

Request: Quick one: TGI of `Cc1cccc(-c2cc(=O)c3ccc(C)nc3[nH]2)c1` ?
Result: > 22.8 µM

Request: Report TGI for O=[N+]([O-])c1ccc(Cl)cc1C1ON=C(c2ccccc2)N1C12CC3CC(CC(C3)C1)C2 (stereo unspecified) please.
Result: > 100 µM

====

Tested on: OVCAR-5 ovarian
test: NCI tumour cell line growth inhibition, 48 h
endpoint.name: TGI

Study these solved cases before continuing.
N#CC1C(=O)Nc2sc(C(=O)c3ccc(Br)cc3)c(N)c2C12CCCCC2 (stereo unspecified) ... > 100 µM
COC1=CC(=O)C(O)=C(C[C@@]2(C)[C@@H]3CCC[C@H](COC(=O)CCCCCNC(=O)OC(C)(C)C)[C@@]3(C)CC[C@@H]2C)C1=O ... > 10 µM
C=C(C)CCC1CCCCC(CN(C)C)C1=O (stereo unspecified) ... > 100 µM
CC1(C)OCC2OC3([C@H](O)CCO)OC(C)(C)OC3C2O1 (stereo partly specified) ... > 100 µM
C=C(C)C1Cc2c(cc(O)c3c(=O)c4ccccc4n(C)c23)O1 (stereo unspecified) ... > 100 µM

Now for a further compound.
Request: Request the reported TGI associated with `N=c1c2c3n(c4c(=O)n(-c5ccccc5)c(=S)n(c(=O)n1-c1ccccc1)c24)CCCCC3`
Result: > 100 µM

====

Overview of reported TGI across a group of compounds:
Test system: NCI-H23 lung
test: NCI tumour cell line growth inhibition, 48 h

// solved cases for TGI follow
Cn1c(N2CCCC2)c(C=O)c(=O)n(C)c1=O ... > 100 µM
O=C(CSc1nnc(Cc2ccccc2)o1)Nc1ccc(Cl)cc1 ... > 100 µM
CCCCCCCCCCCCCCCCCCNc1ccn(C2OC(COP(=O)(O)O)C(O)C2O)c(=O)n1 (stereo not given) ... > 100 µM

Request: Given `Nc1c(C(=O)c2cccc(OCCN3CCOCC3)c2)cnn1-c1ccc(F)cc1` , state its recorded TGI.
Result: > 25 µM

Request: Name the reported TGI value associated with the compound `OCCSCCCSCCO`
Result: > 100 µM

====

System: UO-31 renal
test: NCI tumour cell line growth inhibition, 48 h
Entries and their measured TGI follow.

Use these answered entries as a reference point.
Cc1ccc(/C=C2\NC(=S)N(CN3CCOCC3)C2=O)cc1 ... > 100 µM
Oc1[nH]c2ccccc2c1N=NC1=NCCCCN1 ... > 100 µM
CN(C)c1ccc(/C=C2\CNC/C(=C\c3ccc(N(C)C)cc3)C2=O)cc1 ... > 100 µM
COc1cccc(/C=C/C(=O)c2ccc(Cl)cc2Cl)c1OC ... 17.4 µM
CCCCCCCCOc1ccc(/C=N/Nc2cc(C)nc3ccc(Cl)cc23)cc1 ... 2.93 µM

Request: What does the data say about its TGI? Entry: `CN(C)CCNC(=O)c1cccc2cc3ccccc3nc12`
Result: 4.06 µM

Request: May I ask what TGI has been recorded for CC1C=C(OC(=O)c2ccccc2)C(=O)C(n2cc(F)c(=O)n(C(=O)c3ccccc3)c2=O)O1 (configuration not stated) ?
Result: > 100 µM

Request: Recorded TGI for O=C(O)CCC1COc2ccccc2O1 (configuration not stated) , please?
Result: > 10 µM

Request: Need TGI of `N=c1c2c3n(c4c(=O)n(-c5ccccc5)c(=S)n(c(=O)n1-c1ccccc1)c24)CCCCC3` , thanks.
Result: > 100 µM

Request: Return reported TGI; argument: C/C=C(\C)C(=O)O[C@@H]1C(O)[C@H]2OC(COC(=O)CCC(=O)CCCCCC[C@H](CCCCC)O[C@@H]3OC(C)[C@H](OC(C)=O)C(O)[C@H]3O2)[C@H]1OC(=O)/C=C/c1ccccc1 (some centres not stated)
Result: 8.34 µM

Request: Which value of TGI has been reported for `N#Cc1c(=O)c2cc([N+](=O)[O-])ccc2n2c1[nH]c1ccccc12` in the records?
Result: > 57.4 µM

Request: What measured TGI goes with `N#C/C(=C/c1cccnc1)C(=O)c1ccccc1` ?
Result: > 100 µM

Request: I have this compound here, COc1ccc(/C=C2\CN(C)CC3=C2OC(N)=C(C#N)C3c2ccc(OC)cc2)cc1 (configuration not stated) , and I need its recorded TGI.
Result: > 100 µM

Request: Please give the measured TGI for this compound: `O=C(Nc1cnn2ccc(N3CCC[C@@H]3c3cc(F)ccc3F)nc12)N1CC[C@H](O)C1`
Result: > 100 µM

Request: I am curious: what TGI value has been reported for `Cc1cc(S(=O)(=O)Nc2nc3ccsc3c(=O)n2Cc2ccco2)c(S)cc1Cl` ?
Result: > 100 µM

Request: Which TGI is listed for `C=CCN1C(=O)/C(=C/c2ccc(C)cc2)N=C1SC/C=C/C` ?
Result: > 100 µM

Request: Field request: TGI | item: `Cn1cc2c(n1)c(N/N=C/c1ccccc1)nn1nnnc21`
Result: > 100 µM

Request: Please look up its TGI: `COC(=O)NCCc1[nH]nc2c1C(=O)C=C(OC)C2=O`
Result: 50.1 µM

Request: Reported TGI for `COC(=O)c1ccc2n1C1CC3CC(CC2C3)C1` : what is it?
Result: > 100 µM
